# assay details: qHTS assay to identify small molecule agonists of the farnesoid-X-receptor (FXR) signaling pathway - cell viability counter screen (AID 743218); further: nearly all actives have a fitted effect of over 45% in size
# settings: FXR-bla HEK293T viability, CellTiter-Glo luminescence, 16 h; series mostly up to 62.6 µM
Inconclusive results are not listed. Activity calls are given as the source filed them. The call rests on the fitted dose curve; in most records, active means well fitted cell-killing curve with a large enough effect in the repeat runs; inconclusive means weak or mixed curves, or effect the other way; inactive means no such curve, though single readings can be large or run the other way.
result type: viability change, negative = cytotoxic

Use the examples below as a reference point.
INSERT INTO assay_data (molecule, measured) VALUES
  ('OC(CCN1CCCCC1)(c1ccccc1)C1CC2C=CC1C2 (configuration not stated)', 'inactive'),
  ('COC(=O)[C@@H](N)Cc1ccc(O)c(O)c1', 'inactive'),
  ('CC(C)NCCCC1(C(N)=O)c2ccccc2-c2ccccc21', 'inactive'),
  ('NCCc1cnc[nH]1', 'inactive'),
  ('CN1N=C(C(N)=O)CCC1=O', 'inactive'),
  ('O=C(O)CCCc1ccccc1', 'inactive');

Consider the additional molecule presented here.
For the molecule `CCn1nc(C(=O)O)c(=O)c2cc3c(cc21)OCO3` , what viability change, negative = cytotoxic is on record?
inactive

* * *

# measurement target: Aromatase (Homo sapiens) (UniProt P11511)
# Sequence (P11511 whole entry, looked up): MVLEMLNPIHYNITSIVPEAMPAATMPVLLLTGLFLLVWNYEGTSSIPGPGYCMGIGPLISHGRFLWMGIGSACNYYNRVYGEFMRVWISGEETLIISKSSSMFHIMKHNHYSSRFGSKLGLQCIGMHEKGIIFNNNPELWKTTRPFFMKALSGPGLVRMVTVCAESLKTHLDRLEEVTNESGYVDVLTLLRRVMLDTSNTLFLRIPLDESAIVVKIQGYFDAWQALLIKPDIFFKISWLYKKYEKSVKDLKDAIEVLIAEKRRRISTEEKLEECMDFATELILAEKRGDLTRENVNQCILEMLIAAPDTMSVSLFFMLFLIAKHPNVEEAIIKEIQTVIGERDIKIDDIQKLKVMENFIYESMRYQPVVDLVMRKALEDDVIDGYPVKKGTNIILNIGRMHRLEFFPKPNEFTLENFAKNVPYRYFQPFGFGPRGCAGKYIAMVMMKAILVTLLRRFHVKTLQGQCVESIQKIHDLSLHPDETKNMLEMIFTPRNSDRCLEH
# assay details: qHTS assay to identify aromatase inhibitors (AID 743083); further: nearly all actives have a fitted effect of over 55% in size
# settings: MCF-7 aro ERE, testosterone-driven ERE luciferase, 24 h; series mostly up to 70.3 µM
Records with an inconclusive call do not appear. Active and inactive are the calls of the source. Calls follow the shape of the dose curve; as a rule, active = well fitted inhibition curve with a large enough effect in the repeat runs; inconclusive = weak or mixed curves; inactive = no such curve, though single readings can be large or run the other way.
Outcomes you can answer with include only these: Yes = active, No = inactive

Worked examples follow.
INSERT INTO measurements (molecule, measurement_target, assigned_class) VALUES
  ('C[C@H](NC(CCc1ccccc1)C(=O)O)C(=O)N1CCC[C@H]1C(=O)O (stereo partly drawn)', 'Aromatase (Homo sapiens) (UniProt P11511)', 'No'),
  ('ClC(Cl)(Br)Br', 'Aromatase (Homo sapiens) (UniProt P11511)', 'No'),
  ('COC(=O)[C@@H](N)Cc1ccc(O)c(O)c1', 'Aromatase (Homo sapiens) (UniProt P11511)', 'No'),
  ('O=C(CCCN1CCN(c2ccccn2)CC1)c1ccc(F)cc1', 'Aromatase (Homo sapiens) (UniProt P11511)', 'No'),
  ('CN1CCCC1', 'Aromatase (Homo sapiens) (UniProt P11511)', 'No'),
  ('O=Cc1cccc([N+](=O)[O-])c1', 'Aromatase (Homo sapiens) (UniProt P11511)', 'No'),
  ('CC(C)(O)C#CC(C)(C)O', 'Aromatase (Homo sapiens) (UniProt P11511)', 'No'),
  ('O=C(O)COc1nn(Cc2ccccc2)c2ccccc12', 'Aromatase (Homo sapiens) (UniProt P11511)', 'No'),
  ('Oc1ccc(C2CNCCc3c2cc(O)c(O)c3Cl)cc1 (stereo not drawn)', 'Aromatase (Homo sapiens) (UniProt P11511)', 'No'),
  ('CCOC(=O)[C@H](CCc1ccccc1)N[C@@H](C)C(=O)N1[C@H](C(=O)O)C[C@@H]2CCC[C@@H]21', 'Aromatase (Homo sapiens) (UniProt P11511)', 'No');

# ---- query molecule ----
Could you please tell me the result logged for COC(=O)c1ccc(C)cc1C1=NC(C)(C(C)C)C(=O)N1 (stereo not drawn) in this assay?
No

* * *

# assay details: qHTS RealTime-Glo MT Cell Viability Assay in HEK293 cells - 0 hour (AID 1224880); further: top concentration of the series differs between compounds; nearly all actives have a fitted effect of over 45% in size
# settings: RealTime-Glo luminescence; series mostly up to 76.8 µM
Results filed as inconclusive are left out. Calls of active or inactive are those of the source. The call rests on the fitted dose curve; in most records, active means well fitted cell-killing curve with a large enough effect in the repeat runs; inconclusive means weak or mixed curves, or effect the other way; inactive means flat fitted curve, though single readings scatter.
result type: activity change, negative = cytotoxicity

INSERT INTO measurements (compound, measured) VALUES
  ('CCCN1CCCC[C@H]1C(=O)Nc1c(C)cccc1C', 'inactive'),
  ('Cc1cc2c(cc1S(N)(=O)=O)S(=O)(=O)CCC2', 'inactive'),
  ('CCCCOCCOCCOCc1cc2c(cc1CCC)OCO2', 'inactive'),
  ('CCOC(=O)C(=O)OCC', 'inactive'),
  ('Cc1c(O)cccc1O', 'inactive');

Find the recorded activity change, negative = cytotoxicity belonging to `CC1(C)CO[C@@H](CC(=O)O)CN1` and report it.
inactive
